Experiment: Single ascending oral dose study in healthy volunteers: plasma pharmacokinetics
Type: in vivo, human
Conditions: human, plasma, oral, 25 mg, 48 Hours Postdose; 25 mg; read-out: Plasma concentration, Median
endpointLabel: concentration at 48 h (ng/mL)
Unit ng/mL implied. Number only.

What the record says about Cn1cc(S(=O)(=O)[C@@](C)(F)C2CCN(C(=O)Nc3ccon3)CC2)c(C(F)F)n1 : concentration at 48 h is 35.5

* * *

Experiment: Food effect cross-over study, 200 mg (25 mg tablets), healthy volunteers: plasma pharmacokinetics
Assay type: in vivo, human
Details: human, plasma, oral, fed state, read-out: Tmax, Median (range)
endpointLabel: Tmax (h)
Unit h implied. Number only.

What the record says about Cn1cc(S(=O)(=O)[C@@](C)(F)C2CCN(C(=O)Nc3ccon3)CC2)c(C(F)F)n1 : Tmax is 5.5

* * *

Assay: Single ascending oral dose study in healthy volunteers: plasma pharmacokinetics
Type: in vivo, human
Settings: human, plasma, oral, 50 mg; read-out: AUC0-48, Geometric Mean
endpointLabel: AUC(0-t) (ng·h/mL)
Unit ng·h/mL implied. Number only.

What the record says about Cn1cc(S(=O)(=O)[C@@](C)(F)C2CCN(C(=O)Nc3ccon3)CC2)c(C(F)F)n1 [Compound I] : AUC(0-t) is 9930

* * *

Assay: Single ascending oral dose study in healthy volunteers: plasma pharmacokinetics
Assay type: in vivo, human
Settings: human, plasma, oral, 25 mg; read-out: Vz/F, Mean
endpointLabel: Vd/F (L)
Unit L implied. Number only.

What the record says about Cn1cc(S(=O)(=O)[C@@](C)(F)C2CCN(C(=O)Nc3ccon3)CC2)c(C(F)F)n1 : Vd/F is 68.6

* * *

Test: Food effect cross-over study, 200 mg (25 mg tablets), healthy volunteers: plasma pharmacokinetics
Assay type: in vivo, human
Conditions: human, plasma, po, single 200 mg oral dose, Fasted (N = 10), read-out: Cmax, Geometric Mean
endpointLabel: Cmax (ng/mL)
Unit ng/mL implied. Number only.

What the record says about Cn1cc(S(=O)(=O)[C@@](C)(F)C2CCN(C(=O)Nc3ccon3)CC2)c(C(F)F)n1 : Cmax is 2320

* * *

Test: Food effect cross-over study, 200 mg (25 mg tablets), healthy volunteers: plasma pharmacokinetics
Type: in vivo, human
Conditions: human, plasma, oral, subjects who completed both fasted and fed periods (N = 9), read-out: AUClast, Fasted LSGM
endpointLabel: AUC(0-t) (ng·h/mL)
Unit ng·h/mL implied. Number only.

What the record says about Cn1cc(S(=O)(=O)[C@@](C)(F)C2CCN(C(=O)Nc3ccon3)CC2)c(C(F)F)n1 : AUC(0-t) is 59000

* * *

Test: Food effect cross-over study, 200 mg (25 mg tablets), healthy volunteers: plasma pharmacokinetics
Assay type: in vivo, human
Conditions: human, plasma, oral, fasted state, read-out: Cmax of mean plasma concentrations
endpointLabel: Cmax (ng/mL)
Unit ng/mL implied. Number only.

What the record says about Cn1cc(S(=O)(=O)[C@@](C)(F)C2CCN(C(=O)Nc3ccon3)CC2)c(C(F)F)n1 [Compound I] : Cmax is 2310

* * *

Assay: Single ascending oral dose study in healthy volunteers: plasma pharmacokinetics
Type: in vivo, human
Conditions: human, plasma, oral, 10 mg, 72 Hours Postdose; 10 mg; read-out: Plasma concentration, Mean
endpointLabel: concentration at 72 h (ng/mL)
Unit ng/mL implied. Number only.

What the record says about Cn1cc(S(=O)(=O)[C@@](C)(F)C2CCN(C(=O)Nc3ccon3)CC2)c(C(F)F)n1 [Compound I] : concentration at 72 h is 4.93
